These data points were gathered from the supplement of paper PMC7877785.

- method_description: self-splicing fitness, log relative to wild type (ln ratio); higher = more splicing; Tetrahymena group I intron in knt gene, E. coli kanamycin selection, DiMSum; sequences stand for … in CUCUCU…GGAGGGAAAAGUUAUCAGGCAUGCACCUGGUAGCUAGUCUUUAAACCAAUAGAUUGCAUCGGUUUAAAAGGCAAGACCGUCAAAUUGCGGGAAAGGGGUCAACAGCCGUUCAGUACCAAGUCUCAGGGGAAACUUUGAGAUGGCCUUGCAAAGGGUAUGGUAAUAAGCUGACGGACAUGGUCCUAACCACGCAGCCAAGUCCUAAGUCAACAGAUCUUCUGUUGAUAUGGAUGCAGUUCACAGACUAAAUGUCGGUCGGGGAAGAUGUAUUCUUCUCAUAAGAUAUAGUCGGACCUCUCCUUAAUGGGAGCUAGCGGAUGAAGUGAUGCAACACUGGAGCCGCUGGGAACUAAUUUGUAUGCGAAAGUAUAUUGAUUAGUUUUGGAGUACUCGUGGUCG;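 further: selection with 25 µg/mL kanamycin versus none on LB agar overnight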
- condition_set: 37 °C
Decision: self-splicing fitness (ln) compared against -1; not below it gives y, below it gives n.

Incoming: Is self-splicing fitness (ln) for `GUCAAGCAAUAUUACGCAAC` at or above -1?
Outgoing: n

###

- method_description: self-splicing fitness, log relative to wild type (ln ratio); higher = more splicing; Tetrahymena group I intron in knt gene, E. coli kanamycin selection, DiMSum; sequences stand for … in CUCUCU…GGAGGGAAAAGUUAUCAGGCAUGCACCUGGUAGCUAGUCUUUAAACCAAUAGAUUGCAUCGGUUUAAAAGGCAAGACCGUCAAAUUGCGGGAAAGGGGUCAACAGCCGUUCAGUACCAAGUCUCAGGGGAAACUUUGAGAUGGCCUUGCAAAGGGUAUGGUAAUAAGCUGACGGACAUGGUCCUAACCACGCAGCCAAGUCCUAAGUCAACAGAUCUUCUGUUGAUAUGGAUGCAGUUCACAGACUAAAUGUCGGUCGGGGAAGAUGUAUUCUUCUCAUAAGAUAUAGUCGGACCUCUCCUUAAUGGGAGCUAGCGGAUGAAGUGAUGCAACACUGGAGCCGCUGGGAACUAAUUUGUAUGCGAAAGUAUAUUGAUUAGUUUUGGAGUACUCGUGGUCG
- condition_set: 37 °C
readout: self-splicing fitness (ln)
// print number alone

Solved entries (count: 2):
{"seq": "CGCAAGCAAUAUUACGGAGG", "self-splicing fitness (ln)": -0.818}
{"seq": "GCAGAGCAAUAUUACGGACA", "self-splicing fitness (ln)": -0.844}

Incoming: self-splicing fitness (ln) lookup needed for `UUUAAGCAAUAUUACGUAGU` , thanks.
Outgoing: -2.13

Incoming: Lookup `AUACAGCAAUAUUACGCUUA`
Outgoing: -0.741

Incoming: Consider next the sequence `GGGCAGCAAUAUUACGCUUC` in the same way.
Outgoing: -1.85

###

- method_description: self-splicing fitness, log relative to wild type (ln ratio); higher = more splicing; Tetrahymena group I intron in knt gene, E. coli kanamycin selection, DiMSum; sequences stand for … in CUCUCU…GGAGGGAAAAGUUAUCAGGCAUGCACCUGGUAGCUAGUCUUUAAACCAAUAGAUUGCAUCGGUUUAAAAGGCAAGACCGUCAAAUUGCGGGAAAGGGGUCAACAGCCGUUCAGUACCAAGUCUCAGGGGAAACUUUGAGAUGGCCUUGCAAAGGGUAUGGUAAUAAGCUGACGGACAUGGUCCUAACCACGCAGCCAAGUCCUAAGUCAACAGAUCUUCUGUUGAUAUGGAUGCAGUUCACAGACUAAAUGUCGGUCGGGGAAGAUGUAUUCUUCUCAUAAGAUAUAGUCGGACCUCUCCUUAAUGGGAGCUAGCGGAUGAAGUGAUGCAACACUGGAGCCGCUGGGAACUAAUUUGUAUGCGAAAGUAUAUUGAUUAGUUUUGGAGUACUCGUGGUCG
- condition_set: 30 °C
Documented self-splicing fitness (ln) across a set of sequences
Respond with the number and no other words.

Take a look at these entries with their results.
{"seq": "GUUAAGCAAUAUUACGCAUC", "self-splicing fitness (ln)": -2.3}
{"seq": "CGCGAGCAAUAUUACGUGGG", "self-splicing fitness (ln)": -3.81}

Incoming: Requested read-out: self-splicing fitness (ln). Entry: `CGUGAGCAAUAUUACGCGAU`
Outgoing: -2.75

Incoming: Same for `AUUAAGCAAUAUUACGUAAA`
Outgoing: -1.29

Incoming: Similarly, `UGUUAGCAAUAUUACGUUAC` ?
Outgoing: -1.97

Incoming: Again, but for `CACAAGCAAUAUUACGGGAU`
Outgoing: -3.51

Incoming: Try this sequence too: `CACCAGCAAUAUUACGACAU`
Outgoing: -3.73

Incoming: Please do the same for `GAUCAGCAAUAUUACGACUG` as well.
Outgoing: -1.21
